The measurements presented in this section are drawn from ChEMBL document CHEMBL1201861.

Tested on: BOKU;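 note: growth inhibition of the human BOKU cell line, read out by a cell viability assay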
Assay: cells
Assay type: functional, cell-based
Conditions: Homo sapiens
Description: SANGER: Inhibition of human BOKU cell growth in a cell viability assay.
pIC50: −log10 of the molar value.
Reported Endpoint: pIC50

1) CO[C@H]1C[C@@H]2CC[C@@H](C)[C@@](O)(O2)C(=O)C(=O)N2CCCC[C@H]2C(=O)O[C@H]([C@H](C)C[C@@H]2CC[C@@H](O)[C@H](OC)C2)CC(=O)[C@H](C)/C=C(\C)[C@@H](O)[C@@H](OC)C(=O)[C@H](C)C[C@H](C)/C=C/C=C/C=C/1C	< 7.00
2) CN(c1ncccc1CNc1nc(Nc2ccc3c(c2)CC(=O)N3)ncc1C(F)(F)F)S(C)(=O)=O	< 5.59
3) Cc1cc([C@@H](C)Nc2ccccc2C(=O)O)c2nc(N3CCOCC3)cc(=O)n2c1	< 5.29

Input: For the compound shown here, CN1CCN(CCOc2cc(OC3CCOCC3)c3c(Nc4c(Cl)ccc5c4OCO5)ncnc3c2)CC1 , give the reported pIC50.
Output: < 5.70

====

Tested on: KMS-12-PE;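 note: growth inhibition of human KMS-12-PE cells, measured with a cell viability assay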
Assay: cells
Assay type: functional, cell-based
Conditions: Homo sapiens
Description: SANGER: Inhibition of human KMS-12-PE cell growth in a cell viability assay.
pIC50: −log10 of the molar value.
Provide the reported pIC50 of each item.

1) Cc1cc([C@@H](C)Nc2ccccc2C(=O)O)c2nc(N3CCOCC3)cc(=O)n2c1	< 5.29
2) Cn1cncc1[C@@](N)(c1ccc(Cl)cc1)c1ccc2c(c1)c(-c1cccc(Cl)c1)cc(=O)n2C	< 4.80
3) COc1cc([C@@H]2c3cc4c(cc3[C@@H](O[C@@H]3O[C@@H]5CO[C@@H](C)O[C@H]5[C@H](O)[C@H]3O)[C@H]3COC(=O)[C@H]23)OCO4)cc(OC)c1O [ETOPOSIDE]	5.00

We now examine a further compound.
Input: For the compound shown here, CC1=C2C[C@H]3[C@@H](CC=C4C[C@@H](O)CC[C@@]43C)[C@@H]2CC[C@]12O[C@@H]1C[C@H](C)CN[C@H]1[C@H]2C , give the reported pIC50.
Output: < 4.80

====

Tested on: NCI-H524;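 note: growth inhibition of human NCI-H524 cells, read out through a cell viability assay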
Assay: cells
Type: functional, cell-based
Conditions: Homo sapiens
Description: SANGER: Inhibition of human NCI-H524 cell growth in a cell viability assay.
pIC50: −log10 of the molar value.
Reported Endpoint: pIC50

Use these answered entries as a reference point.
1) O=C(/C=C/c1ccccc1)NC(NC(=S)Nc1cccc2cccnc12)C(Cl)(Cl)Cl (centres undefined) [SALUBRINAL]	< 4.80
2) CC1=C2C[C@H]3[C@@H](CC=C4C[C@@H](O)CC[C@@]43C)[C@@H]2CC[C@]12O[C@@H]1C[C@H](C)CN[C@H]1[C@H]2C [CYCLOPAMINE]	< 4.80
3) C[C@]1(O)C[C@@H](c2nc(-c3ccc4ccc(-c5ccccc5)nc4c3)c3c(N)nccn32)C1 [LINSITINIB]	< 5.59

Input: For the compound shown here, Cc1cc([C@@H](C)Nc2ccccc2C(=O)O)c2nc(N3CCOCC3)cc(=O)n2c1 [AZD-6482] , give the reported pIC50.
Output: < 5.29

====

Provide the reported pIC50 of each item.
Tested on: IST-MES1
Assay: cells
Format: functional, cell-based, Homo sapiens
Conditions: Homo sapiens, IST-MES1
Description: SANGER: Inhibition of human IST-MES1 cell growth in a cell viability assay.
Answers are plain numbers, as −log10 of the molar value.

List reported pIC50 for each of these molecules:
1. CC(=O)O[C@@]12CO[C@@H]1C[C@H](O)[C@@]1(C)C(=O)[C@H](O)C3=C(C)[C@@H](OC(=O)[C@H](O)[C@@H](NC(=O)OC(C)(C)C)c4ccccc4)C[C@@](O)([C@@H](OC(=O)c4ccccc4)[C@H]21)C3(C)C
2. Cn1cncc1[C@@](N)(c1ccc(Cl)cc1)c1ccc2c(c1)c(-c1cccc(Cl)c1)cc(=O)n2C

Output:
[8.08, 4.84]

====

Tested on: RPMI-7951
Test: cells
Assay type: functional, cell-based, Homo sapiens
Settings: Homo sapiens, RPMI-7951
Description: SANGER: Inhibition of human RPMI-7951 cell growth in a cell viability assay.
pIC50: −log10 of the molar value.
Reported Endpoint: pIC50

Use these answered entries as a reference point.
1) Cc1ccc(Nc2nccc(N(C)c3ccc4c(C)n(C)nc4c3)n2)cc1S(N)(=O)=O [PAZOPANIB]	< 5.10
2) CN(C)C/C=C/C(=O)Nc1cc2c(Nc3ccc(F)c(Cl)c3)ncnc2cc1O[C@H]1CCOC1 [AFATINIB]	< 6.30
3) CC(=O)O[C@@H]1[C@@H](OC(C)=O)[C@@H](O)[C@H](Oc2c(-c3ccc(O)cc3)oc3cc(O)cc(O)c3c2=O)O[C@H]1C	< 5.00

We now examine a further compound.
Input: For the compound shown here, CCOc1nc(NC(=O)Cc2cc(OC)ccc2OC)cc(N)c1C#N , give the reported pIC50.
Output: < 5.00

====

Provide the reported IC50 of each item.
System: CAL-39;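 note: cell viability assay measuring growth inhibition of CAL-39 cells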
Experiment: cells
Type: functional, cell-based, Homo sapiens
Settings: Homo sapiens, CAL-39
Description: SANGER: Inhibition of human CAL-39 cell growth in a cell viability assay.

1) CCOc1nc(NC(=O)Cc2cc(OC)ccc2OC)cc(N)c1C#N	> 10 µM

List reported IC50 for each of these compounds:
1. COc1cc(F)c(F)c(Nc2ccc(I)cc2F)c1NS(=O)(=O)C1(CC(O)CO)CC1 (stereo not given)
2. Cc1ccc(Nc2nccc(N(C)c3ccc4c(C)n(C)nc4c3)n2)cc1S(N)(=O)=O [PAZOPANIB]
3. CC(=O)O[C@@H]1[C@@H](OC(C)=O)[C@@H](O)[C@H](Oc2c(-c3ccc(O)cc3)oc3cc(O)cc(O)c3c2=O)O[C@H]1C

Output:
1. 0.415 µM
2. > 8 µM
3. > 10 µM

Input: For the compound shown here, C[C@]1(O)C[C@@H](c2nc(-c3ccc4ccc(-c5ccccc5)nc4c3)c3c(N)nccn32)C1 [LINSITINIB] , give the reported IC50.
Output: > 2.56 µM

====

Tested on: NCI-H1703;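 note: growth inhibition of NCI-H1703 cells, read out via a cell viability assay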
Experiment: cells
Type: functional, cell-based, Homo sapiens
Conditions: Homo sapiens, NCI-H1703
Description: SANGER: Inhibition of human NCI-H1703 cell growth in a cell viability assay.
pIC50: −log10 of the molar value.
Reported Endpoint: pIC50

1) O=c1cc(-c2cccc3c2Sc2ccccc2S3)oc(N2CCOCC2)c1 [KU-55933]	< 5.00
2) COc1cc([C@@H]2c3cc4c(cc3[C@@H](O[C@@H]3O[C@@H]5CO[C@@H](C)O[C@H]5[C@H](O)[C@H]3O)[C@H]3COC(=O)[C@H]23)OCO4)cc(OC)c1O [ETOPOSIDE]	5.89
3) CN(C)C/C=C/C(=O)Nc1cc2c(Nc3ccc(F)c(Cl)c3)ncnc2cc1O[C@H]1CCOC1 [AFATINIB]	< 6.30

List reported pIC50 for each of these molecules:
1. C[C@]1(O)C[C@@H](c2nc(-c3ccc4ccc(-c5ccccc5)nc4c3)c3c(N)nccn32)C1 [LINSITINIB]
2. CC(=O)O[C@@H]1[C@@H](OC(C)=O)[C@@H](O)[C@H](Oc2c(-c3ccc(O)cc3)oc3cc(O)cc(O)c3c2=O)O[C@H]1C
3. C=CCNC1=C2C[C@@H](C)C[C@H](OC)[C@H](O)[C@@H](C)/C=C(\C)[C@H](OC(N)=O)[C@@H](OC)/C=C\C=C(/C)C(=O)NC(=CC1=O)C2=O [TANESPIMYCIN]

Output:
< 5.59
< 5.00
6.38

====

Tested on: GCT;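 note: GCT cell line proliferation inhibition, read out with a cell viability assay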
Assay: cells
Assay type: functional, cell-based, Homo sapiens
Conditions: Homo sapiens, GCT
Description: SANGER: Inhibition of human GCT cell growth in a cell viability assay.
Reported Endpoint: IC50

1) Cc1ccc(Nc2nccc(N(C)c3ccc4c(C)n(C)nc4c3)n2)cc1S(N)(=O)=O	> 8000 nM
2) C[C@]1(O)C[C@@H](c2nc(-c3ccc4ccc(-c5ccccc5)nc4c3)c3c(N)nccn32)C1	> 2560 nM

List reported IC50 for each of these molecules:
1. C=CCc1cccc(/C=N/NC(=O)CN2CCN(Cc3ccccc3)CC2)c1O
2. CN(c1ncccc1CNc1nc(Nc2ccc3c(c2)CC(=O)N3)ncc1C(F)(F)F)S(C)(=O)=O
3. O=C1N=C(NCc2cccs2)S/C1=C\c1ccc2ncccc2c1

Output:
1: > 2560 nM; 2: > 2560 nM; 3: > 5000 nM

List reported IC50 for each of these molecules:
1. COc1ccc(-c2ccc3c(N4CCOC[C@@H]4C)nc(N4CCOC[C@@H]4C)nc3n2)cc1CO
2. O=c1cc(-c2cccc3c2Sc2ccccc2S3)oc(N2CCOCC2)c1

Output:
1. 1340 nM
2. > 10000 nM

Input: For the molecule shown here, CN(Cc1cnc2nc(N)nc(N)c2n1)c1ccc(C(=O)N[C@@H](CCC(=O)O)C(=O)O)cc1 [METHOTREXATE] , give the reported IC50.
Output: > 200 nM

====

Test system: RH-18
Experiment: cells
Format: functional, cell-based
Conditions: Homo sapiens, Rh18
Description: SANGER: Inhibition of human RH-18 cell growth in a cell viability assay.
Reported Endpoint: IC50

Use these answered entries as a reference point.
1) CN(C)C/C=C/C(=O)Nc1cc2c(Nc3ccc(F)c(Cl)c3)ncnc2cc1O[C@H]1CCOC1 [AFATINIB]	> 0.5 µM
2) O=C(c1cc(Cc2n[nH]c(=O)c3ccccc23)ccc1F)N1CCN(C(=O)C2CC2)CC1 [OLAPARIB]	> 5 µM
3) COc1ccc(C2=N[C@@H](c3ccc(Cl)cc3)[C@@H](c3ccc(Cl)cc3)N2C(=O)N2CCNC(=O)C2)c(OC(C)C)c1 [NUTLIN-3]	4.28 µM

We now examine a further molecule.
Input: For the molecule shown here, O=c1cc(-c2cccc3c2Sc2ccccc2S3)oc(N2CCOCC2)c1 [KU-55933] , give the reported IC50.
Output: > 10 µM
